B1: glmS ribozyme (parent)
chain: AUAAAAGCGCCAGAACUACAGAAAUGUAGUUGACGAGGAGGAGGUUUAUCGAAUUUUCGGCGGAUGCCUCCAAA

# Variants of: B1
# assay_name: self-cleavage kobs at 10000 uM GlcN6P; higher = faster cleavage; RNA array
# run_parameters: with glucosamine-6-phosphate
This sample holds only a part of the variants without activity.
Give self-cleavage kobs at 10000 uM GlcN6P for every item shown.
Answers are plain numbers, in s⁻¹.

For every item below, please supply its self-cleavage kobs at 10000 uM GlcN6P.
1. U55A G66A
2. G13A G43U U45G
3. C50U

Result ::
0.0286
6.53e-05
9.95e-05
